- Test system: PRKACA (mouse)
- details: compound 10.0 µM; accession and sequence are those of the human protein
parameter.measured: inhibition (%)
The answer is to be given in %; state only the numeric part.

# item.smiles, inhibition / %
data = [
    ("N#C/C(=C\\c1ccc(O)c(O)c1)C(N)=S", 4),
    ("COc1cc2c(Nc3ccc(NC(=O)c4ccccc4)cc3)ncnc2cc1OCCCN1CCOCC1", 7),
    ("O=S(=O)(c1cccc2c(Cl)cccc12)N1CCCNCC1", 3),
    ("Cc1cc(F)c(Nc2ncnc3cc(OCc4ccccc4)ccc23)cc1O", 2),
    ("COc1cc2ncnc(Nc3ccc(Cl)cc3F)c2cc1OC", 2),
]

Request: Form field: reported inhibition of CC(C)[C@H](CO)Nc1nc(Nc2ccc(C(=O)O)c(Cl)c2)c2ncn(C(C)C)c2n1
Result: 21

Request: Next record, please: COc1cc2ncn(-c3cc(OCc4ccccc4C(F)(F)F)c(C(N)=O)s3)c2cc1OC
Result: 14

Value source: the kinase profiling compilation of Christmann-Franck et al. (2016)
